# test.system: full-length human BTK (Homo sapiens)
# Construct: 2.5× stocks of full-length human BTK (08-080); purchased CarnaBio USA, Inc., Natick, Mass; 08-080
# assay.notes: Assay A: BTK IC50 Enzyme Assay (microfluidic off-chip mobility shift kinase assay)
# Type: biochemical
# run.parameters: full-length human BTK, kinKDR peptide substrate, incubated 90 min at 27 C; read-out: Assay A (Time Dependent BTK Enzyme Assay IC50)
pIC50: −log10 of the molar value.
# reported pIC50; entries follow

molecule	pIC50
C=CC(=O)N1CCC(c2ccc(C(N)=O)c(Oc3ccc(NC(=O)c4ccccc4)cc3)n2)C1 (stereo not drawn) [Compound 99]	5.30 to 6.00
N#CN[C@@H]1CCCN(c2ccc(C(N)=O)c(Nc3ccc(C(=O)N4CCOCC4)cc3)n2)C1 [Compound 227]	6.00 to 7.00
N#CN1CCC(Nc2cnc(Oc3ccc(Oc4ccccc4)cc3)c(C(N)=O)c2)C1 (stereo not drawn) [Compound 243]	6.00 to 7.00
C=CC(=O)N1CCN(c2ncc(C(N)=O)c(Oc3ccc(Oc4ccccc4)cc3)n2)C(C)C1 (stereo not drawn) [Compound 218]	> 7.00
C=CC(=O)N1C[C@@H]2C[C@H]1CN2c1ccc(C(N)=O)c(Nc2cccnc2)n1 [Compound 15]	> 7.00
C=CC(=O)NCc1cccc(-c2ccc(C(N)=O)c(Oc3ccc(Oc4ccccc4)cc3)n2)c1 [Compound 98]	5.30 to 6.00
CN(C)C/C=C/C(=O)N[C@H]1C[C@@H](Nc2ncc(C(N)=O)c(N)n2)C1 [Compound 162]	< 5.30
C=CC(=O)N1C[C@@H]2C[C@H]1CN2c1ccc(C(N)=O)c(Nc2ccc(CCN3CCCC3)cc2)n1 [Compound 9]	> 7.00
C=CC(=O)N1CCN(c2ccc(C(N)=O)c(Nc3ccc(CCN4CCCC4)cc3)n2)CC1 [Compound 12]	> 7.00
C/C=C/C(=O)N1CCC(Nc2cnc(Oc3ccc(Oc4cccc(F)c4)cc3)c(C(N)=O)c2)CC1 [Compound 230]	5.30 to 6.00
C=CC(=O)N1C[C@@H]2C[C@H]1CN2c1cnc(C(N)=O)c(Oc2ccc(Oc3ccccc3)cc2)n1 [Compound 135]	5.30 to 6.00
C=CC(=O)N1CC=C(c2cncc(C(N)=O)c2Nc2ccc(C(=O)N3CCCCC3)cc2)CC1 [Compound 169]	5.30 to 6.00
C=CC(=O)N1CCC(Nc2cnc(Oc3ccc(Oc4cccc(F)c4)cc3)c(C(N)=O)c2)C1 (stereo not drawn) [Compound 253]	> 7.00
C=CC(=O)N[C@H]1CCN(c2ccc(C(N)=O)c(Oc3ccc(C(=O)N4CCOCC4)cc3)n2)C1 [Compound 101]	< 5.30
C=CC(=O)Nc1ccc(-c2ccc(C(N)=O)c(Oc3ccc(Oc4ccccc4)cc3)n2)cc1 [Compound 159]	< 5.30
C=CC(=O)N1CCC(c2cc(Oc3ccc(Oc4ccc(C)cc4)cc3)c(C(N)=O)cn2)C1 (stereo not drawn) [Compound 110]	> 7.00
C=CC(=O)N1CC2(CC(Nc3ncc(C(N)=O)c(Oc4ccc(Oc5ccccc5)cc4)n3)C2)C1 [Compound 183]	6.00 to 7.00
C=CC(=O)NC1CN(c2ncc(C(N)=O)c(Oc3ccc(Oc4ccccc4)cc3)n2)C1 [Compound 174]	> 7.00
N#CN1CCC(Nc2cnc(Oc3ccc(Oc4ccccc4)cc3)c(C(N)=O)c2)CC1 [Compound 246]	< 5.30
C=CC(=O)N[C@H]1CCN(c2cc(Oc3ccc(C(=O)Nc4ccccc4)cc3)c(C(N)=O)cn2)C1 [Compound 116]	5.30 to 6.00
C=CC(=O)N[C@H]1CCN(c2ccc(C(N)=O)c(Oc3ccc(Oc4ccc(C)cc4)cc3)n2)C1 [Compound 85]	6.00 to 7.00
C=CC(=O)N1CCC(c2ccc(C(N)=O)c(Nc3ccc(C(=O)N4CCN(C(=O)CCCCNC(=O)CCOCCOCCOCCOCCNC(=O)CCCCC5SCC6NC(=O)NC65)CC4)cc3)n2)CC1 (stereo not drawn) [Compound 177]	> 7.00
C=CC(=O)N1CCC(c2ccc(C(N)=O)c(Oc3ccc(Oc4cccc(C#N)c4)cc3)n2)C1 (stereo not drawn) [Compound 185]	> 7.00
C=CC(=O)N[C@H]1CCN(c2nc(Nc3ccc(N4CCC(F)(F)CC4)cc3)c(C(N)=O)cc2F)C1 [Compound 180]	> 7.00
C=CC(=O)NCc1cncc(-c2ccc(C(N)=O)c(Oc3ccc(Oc4ccccc4)cc3)n2)c1 [Compound 84]	> 7.00
C=CC(=O)N[C@H]1CCN(c2ccc(C(N)=O)c(Nc3ccc(C(=O)N4CCOCC4)cc3)n2)C1 [Compound 35]	> 7.00
C=CC(=O)Nc1cccc(-c2ccc(C(N)=O)c(Oc3ccc(Oc4ccccc4)cc3)n2)c1 [Compound 80]	> 7.00
C=CC(=O)N[C@H]1CCN(c2ncc(C(N)=O)cc2-c2ccc(Oc3ccccc3)cc2)C1 [Compound 170]	< 5.30
C=CC(=O)N1CCC(Nc2cnc(Oc3ccc(Oc4cccc(F)c4)cc3)c(C(N)=O)c2)CC1 [Compound 228]	> 7.00
C=CC(=O)N1CCN(c2ccc(C(N)=O)c(Nc3cccnc3)n2)CC1 [Compound 43]	> 7.00

---

# reported IC50; entries follow
# test.system: full-length human BTK (Homo sapiens, UniProt Q06187)
# Construct: 2.5× stocks of full-length human BTK (08-080); purchased CarnaBio USA, Inc., Natick, Mass; 08-080
# Sequence (Q06187 whole entry): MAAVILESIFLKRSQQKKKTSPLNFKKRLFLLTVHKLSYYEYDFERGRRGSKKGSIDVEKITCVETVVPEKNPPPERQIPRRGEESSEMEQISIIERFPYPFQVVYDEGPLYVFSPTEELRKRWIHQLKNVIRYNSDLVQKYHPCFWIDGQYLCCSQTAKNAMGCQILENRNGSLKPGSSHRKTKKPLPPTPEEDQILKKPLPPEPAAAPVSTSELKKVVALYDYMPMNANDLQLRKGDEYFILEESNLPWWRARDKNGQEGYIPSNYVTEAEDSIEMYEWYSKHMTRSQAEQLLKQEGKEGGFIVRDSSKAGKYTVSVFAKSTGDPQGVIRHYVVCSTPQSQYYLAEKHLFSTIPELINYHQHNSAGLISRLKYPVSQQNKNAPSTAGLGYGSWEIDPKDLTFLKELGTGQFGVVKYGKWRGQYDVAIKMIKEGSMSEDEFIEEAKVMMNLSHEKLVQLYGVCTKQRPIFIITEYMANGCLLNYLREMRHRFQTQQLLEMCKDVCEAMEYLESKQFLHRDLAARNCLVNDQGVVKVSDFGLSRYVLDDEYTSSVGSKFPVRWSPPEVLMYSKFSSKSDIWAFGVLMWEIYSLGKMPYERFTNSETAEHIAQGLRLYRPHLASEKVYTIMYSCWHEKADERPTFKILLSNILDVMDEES
# assay.notes: Assay A: BTK IC50 Enzyme Assay (microfluidic off-chip mobility shift kinase assay)
# Type: biochemical
# run.parameters: full-length human BTK, kinKDR peptide substrate, incubated 90 min at 27 C; read-out: Assay A (Time Dependent BTK Enzyme Assay IC50)
quantity: IC50

>>> print(df.to_string())
                            compound_smiles  quantity  measured_value
0  C=CC(=O)N[C@H]1CCN(c2ccc(C(N)=O)c(Nc3ccc(C(=O)N4CCCCC4)cc3)n2)C1      IC50        < 100 nM
1  C=CC(=O)NC1CCN(c2cnc(Oc3ccc(Oc4ccccc4)cc3)c(C(N)=O)c2)CC1      IC50  100 to 1000 nM
2  C=CC(=O)N[C@H]1CCN(c2ccc(C(N)=O)c(Oc3cccnc3)n2)C1      IC50  100 to 1000 nM
3  C=CC(=O)N1CC[C@@H](N(C)c2ccc(C(N)=O)c(Oc3ccc(Oc4ccccc4)cc3)n2)C1      IC50  100 to 1000 nM

---

# reported pIC50; entries follow
# test.system: full-length human BTK (Homo sapiens, UniProt Q06187)
# Construct: 2.5× stocks of full-length human BTK (08-080); purchased CarnaBio USA, Inc., Natick, Mass; 08-080
# assay.notes: Assay A: BTK IC50 Enzyme Assay (microfluidic off-chip mobility shift kinase assay)
# Assay type: biochemical
# run.parameters: full-length human BTK, kinKDR peptide substrate, incubated 90 min at 27 C; read-out: Assay A (Time Dependent BTK Enzyme Assay IC50)
pIC50: −log10 of the molar value.
quantity: pIC50

                                   compound                               test_system  measured_value
0  CN(C)C/C=C/C(=O)N[C@@H]1CCN(c2ncc(C(N)=O)c(N)n2)C1  full-length human BTK (Homo sapiens, UniProt Q06187)          < 5.30
1  N#CN1CCC[C@H](c2cnc(Oc3ccc(Oc4ccc(F)cc4F)cc3)c(C(N)=O)c2)C1  full-length human BTK (Homo sapiens, UniProt Q06187)    5.30 to 6.00
2  N#CN1CCC(c2cnc(Oc3ccc(Oc4ccccc4)cc3)c(C(N)=O)c2)CC1  full-length human BTK (Homo sapiens, UniProt Q06187)    5.30 to 6.00
3  C/C=C/C(=O)NC1CCN(c2cnc(Oc3ccc(Oc4ccccc4)cc3)c(C(N)=O)c2)C1 (centres unmarked)  full-length human BTK (Homo sapiens, UniProt Q06187)          < 5.30
4  C=CC(=O)N1CCC[C@H](c2cnc(Oc3ccc(Oc4ccccc4)cc3)c(C(N)=O)c2)C1  full-length human BTK (Homo sapiens, UniProt Q06187)          > 7.00
5  C=CC(=O)N[C@H]1CCN(c2ccc(C(N)=O)c(Oc3ccc(Oc4cccc(C(F)(F)F)c4)cc3)n2)C1  full-length human BTK (Homo sapiens, UniProt Q06187)          > 7.00
6  C=CC(=O)N1CCC2(CCN(c3cnc(Oc4ccc(Oc5cccc(F)c5)cc4)c(C(N)=O)c3)C2)C1 (centres unmarked)  full-length human BTK (Homo sapiens, UniProt Q06187)    6.00 to 7.00
7  C=CC(=O)N1CCn2ncc(-c3cnc(C(N)=O)cn3)c2C1  full-length human BTK (Homo sapiens, UniProt Q06187)          < 5.30

---

# reported IC50; entries follow
# test.system: BTK in human whole blood (Homo sapiens, UniProt Q06187)
# Construct: endogenous in cells
# Sequence (Q06187 whole entry): as above
# assay.notes: Assay C: Time Dependent Human Whole Blood IC50 Assay
# run.parameters: read-out: Assay C (Time Dependent Human Whole Blood BTK Enzyme Assay IC50)
quantity: IC50

In [3]: df
Out[3]:
                                    compound   measured_value
 0  C=CC(=O)N1C[C@@H]2C[C@H]1CN2c1ccc(C(N)=O)c(Nc2ccc(CCN3CCCC3)cc2)n1         < 100 nM
 1  C=CC(=O)N[C@H]1CCN(c2ccc(C(N)=O)c(Nc3ccc(N4C[C@@H](C)O[C@@H](C)C4)nc3)n2)C1   100 to 1000 nM
 2  C=CC(=O)N[C@H]1CCN(c2ncc(C(N)=O)c(Nc3ccc(C(=O)NC(C)(C)C)cc3)n2)C1         < 100 nM
 3  C=CC(=O)N[C@H]1CCN(c2ccc(C(N)=O)c(Nc3ccc(C(=O)N4CCN(C)CC4)cc3)n2)C1   100 to 1000 nM
 4  C=CC(=O)N[C@H]1CCN(c2ccc(C(N)=O)c(Nc3ccc(OC)cc3)n2)C1   100 to 1000 nM
 5  C=CC(=O)N[C@H]1CCN(c2nc(Nc3ccc(C(=O)NC(C)(C)C)cc3)c(F)cc2C(N)=O)C1         < 100 nM
 6  C=CC(=O)N1C2C=C(c3ccc(C(N)=O)c(Oc4ccc(Oc5ccccc5)cc4)n3)CC1CC2 (centres unmarked)   100 to 1000 nM
 7  C=CC(=O)N[C@H]1CCN(c2ccc(C(N)=O)c(Nc3ccc(F)nc3)n2)C1  1000 to 5000 nM
 8  C=CC(=O)NC1CN(c2ncc(C(N)=O)c(Oc3ccc(Oc4ccccc4)cc3)n2)C1   100 to 1000 nM
 9  C=CC(=O)N[C@H]1CCN(c2nc(Nc3ccc(N4CCC(F)(F)CC4)cc3)c(C(N)=O)cc2F)C1   100 to 1000 nM
10  C=CC(=O)N1CC=C(c2ccc(C(N)=O)c(Oc3ccc(Oc4ccccc4)cc3)n2)CC1   100 to 1000 nM
